Taken from ChEMBL document CHEMBL2321777.

# STUDY_SYSTEM: UniProt:P31651
# Sequence (P31651 whole entry): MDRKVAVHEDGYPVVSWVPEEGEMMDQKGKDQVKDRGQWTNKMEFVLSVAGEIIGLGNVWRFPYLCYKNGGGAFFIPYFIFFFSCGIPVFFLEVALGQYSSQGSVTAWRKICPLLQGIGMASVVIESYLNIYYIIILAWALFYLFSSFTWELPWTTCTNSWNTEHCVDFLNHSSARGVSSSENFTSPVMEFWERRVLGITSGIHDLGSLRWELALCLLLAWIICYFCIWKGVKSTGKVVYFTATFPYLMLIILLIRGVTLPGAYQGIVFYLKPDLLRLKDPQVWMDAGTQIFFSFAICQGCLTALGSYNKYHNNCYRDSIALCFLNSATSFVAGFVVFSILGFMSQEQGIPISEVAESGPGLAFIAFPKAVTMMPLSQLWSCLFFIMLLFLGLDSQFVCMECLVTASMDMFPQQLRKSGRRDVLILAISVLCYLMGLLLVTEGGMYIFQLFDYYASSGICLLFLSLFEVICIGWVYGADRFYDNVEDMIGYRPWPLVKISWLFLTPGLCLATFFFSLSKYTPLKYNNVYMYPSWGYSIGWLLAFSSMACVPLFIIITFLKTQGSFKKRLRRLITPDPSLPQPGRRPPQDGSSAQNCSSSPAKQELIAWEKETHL
# MEASUREMENT_NOTES: Inhibition of [3H]GABA uptake at mouse GAT2 expressed in HEK293 cells after 3 mins by scintillation counting analysis
MEASURE: IC50 (µM)

In [3]: df
Out[3]:
                                   molecule  units_symbol  censor_symbol  recorded_value
0  CN[C@H]1CCCC[C@H]1C(=O)O (relative stereo)            µM              >            3000
1  Cc1ccsc1C(=CCCN(C)C1C2C=CC(C2)C1C(=O)O)c1sccc1C (stereo not given)            µM              =             144
2  Cc1ccsc1C(=CCCN(C)[C@@H]1CCCC[C@@H]1C(=O)O)c1sccc1C (relative stereo)            µM              =              50
3  Cc1ccsc1C(=CCCN(C)[C@H]1CCCC[C@@H]1C(=O)O)c1sccc1C (relative stereo)            µM              =              36
4  Cc1ccsc1C(=CCCN(C)C1CCC=C1C(=O)O)c1sccc1C (stereo not given)            µM              =              50
